Attribution: patent US20040242641A1

# Study System: neuronal nicotinic acetylcholine receptors (Rattus norvegicus, UniProt P09483+P12390)
# Construct: crude synaptic membrane preparations from whole rat brain
# Sequence (P09483 31-630): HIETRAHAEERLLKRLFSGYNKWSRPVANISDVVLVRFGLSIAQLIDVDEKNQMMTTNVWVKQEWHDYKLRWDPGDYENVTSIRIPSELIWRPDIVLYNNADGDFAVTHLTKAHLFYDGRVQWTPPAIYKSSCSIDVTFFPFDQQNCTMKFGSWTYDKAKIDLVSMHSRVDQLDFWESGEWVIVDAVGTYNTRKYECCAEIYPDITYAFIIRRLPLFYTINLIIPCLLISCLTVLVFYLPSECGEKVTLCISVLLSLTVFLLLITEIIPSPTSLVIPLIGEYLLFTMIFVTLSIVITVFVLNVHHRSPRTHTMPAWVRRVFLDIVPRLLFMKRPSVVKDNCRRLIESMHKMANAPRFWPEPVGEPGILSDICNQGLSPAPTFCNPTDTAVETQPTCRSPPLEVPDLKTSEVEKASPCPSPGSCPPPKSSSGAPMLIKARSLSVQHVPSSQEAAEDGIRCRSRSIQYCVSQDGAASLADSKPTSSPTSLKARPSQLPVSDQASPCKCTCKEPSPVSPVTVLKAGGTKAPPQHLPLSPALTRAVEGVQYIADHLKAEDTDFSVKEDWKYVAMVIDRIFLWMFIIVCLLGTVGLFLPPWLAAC
# Sequence (P12390 25-500): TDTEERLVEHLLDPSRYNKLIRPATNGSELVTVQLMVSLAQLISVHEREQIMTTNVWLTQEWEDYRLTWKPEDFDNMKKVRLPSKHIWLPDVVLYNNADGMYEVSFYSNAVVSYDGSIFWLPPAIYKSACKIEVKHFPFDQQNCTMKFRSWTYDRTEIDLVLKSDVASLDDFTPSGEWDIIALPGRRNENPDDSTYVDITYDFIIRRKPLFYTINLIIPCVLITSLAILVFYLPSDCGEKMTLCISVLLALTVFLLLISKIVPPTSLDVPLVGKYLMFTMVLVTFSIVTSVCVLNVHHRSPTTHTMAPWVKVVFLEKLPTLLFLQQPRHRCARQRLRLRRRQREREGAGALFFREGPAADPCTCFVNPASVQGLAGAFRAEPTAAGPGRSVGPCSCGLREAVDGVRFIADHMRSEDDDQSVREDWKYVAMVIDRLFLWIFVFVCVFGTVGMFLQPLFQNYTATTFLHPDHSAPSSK
# Method Notes: [3H]-cytisine binding to neuronal nicotinic acetylcholine receptors, crude synaptic membranes from whole rat brain
# Recorded Conditions: [3H]-CYT 1.25 nM, Cheng and Prusoff correction
Measured Endpoint: Ki (nM)
Record the value in nM, omitting the unit from your answer.

Lab note: measured Ki of Clc1cc(N2C[C@@H]3CN[C@@H]3C2)cnc1Cl was 0.1

* * *

# Study System: ganglionic-like nicotinic acetylcholine receptor (nAChR) subtype in IMR-32 human neuroblastoma cells (Homo sapiens, UniProt P30926+P32297)
# Construct: host or cells: IMR-32 human neuroblastoma cells
# Sequence (P32297 32-505): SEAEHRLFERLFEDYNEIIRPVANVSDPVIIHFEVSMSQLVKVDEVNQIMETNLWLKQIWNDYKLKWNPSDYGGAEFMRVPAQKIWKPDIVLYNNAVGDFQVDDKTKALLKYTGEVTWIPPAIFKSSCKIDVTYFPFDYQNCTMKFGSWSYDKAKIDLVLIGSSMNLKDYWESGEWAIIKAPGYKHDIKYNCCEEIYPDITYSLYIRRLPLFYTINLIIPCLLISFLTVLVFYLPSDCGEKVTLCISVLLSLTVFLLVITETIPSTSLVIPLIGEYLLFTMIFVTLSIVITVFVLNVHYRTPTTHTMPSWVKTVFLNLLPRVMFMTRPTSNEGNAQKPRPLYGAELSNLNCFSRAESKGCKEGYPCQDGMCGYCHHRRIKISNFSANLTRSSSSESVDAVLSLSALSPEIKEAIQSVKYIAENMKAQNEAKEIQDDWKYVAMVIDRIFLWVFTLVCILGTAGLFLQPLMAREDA
# Sequence (P30926 22-498): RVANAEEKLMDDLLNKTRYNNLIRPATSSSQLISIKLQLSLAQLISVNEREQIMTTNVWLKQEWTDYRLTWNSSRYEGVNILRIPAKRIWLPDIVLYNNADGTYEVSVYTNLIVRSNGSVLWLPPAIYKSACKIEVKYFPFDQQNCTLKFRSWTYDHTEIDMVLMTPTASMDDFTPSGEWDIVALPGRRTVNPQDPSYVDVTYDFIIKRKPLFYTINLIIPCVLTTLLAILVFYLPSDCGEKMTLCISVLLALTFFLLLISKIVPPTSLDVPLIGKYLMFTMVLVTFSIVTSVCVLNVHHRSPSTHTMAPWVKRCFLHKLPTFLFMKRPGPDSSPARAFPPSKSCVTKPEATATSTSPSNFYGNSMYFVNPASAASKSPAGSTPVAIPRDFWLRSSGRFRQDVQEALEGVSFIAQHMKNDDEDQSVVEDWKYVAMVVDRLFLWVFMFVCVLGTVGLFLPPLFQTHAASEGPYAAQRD
# Method Notes: IMR-32 FLIPR assay, intracellular Ca2+ changes (side effect liability)
# Type: cell-based
# Recorded Conditions: IMR-32; Table 1; relative to nicotine; read-out: IMR-32 activitiy % efficacy
Reported Emax values follow for various compounds
Record the value in %, omitting the unit from your answer.

Example entries and their recorded answers appear below.
# Smiles Code, Unit Abbreviation, Reading
records = [
    ("N#Cc1cc(N2C[C@@H]3CN[C@@H]3C2)cnc1Br", "%", 103),
    ("Clc1cc(N2C[C@@H]3CN[C@@H]3C2)cnc1Cl", "%", 73),
    ("Cc1cc(N2C[C@@H]3CN[C@@H]3C2)cnc1Cl", "%", 94),
    ("Clc1cc(N2C[C@@H]3CN[C@@H]3C2)cnc1Br", "%", 81),
]

Lab note: measured Emax of Clc1ccc(N2C[C@@H]3CN[C@@H]3C2)cn1 was 102

Lab note: measured Emax of Clc1cc(N2C[C@H]3CN[C@H]3C2)cnc1Cl was 106

* * *

# Study System: ganglionic-like nicotinic acetylcholine receptor (nAChR) subtype in IMR-32 human neuroblastoma cells (Homo sapiens, UniProt P30926+P32297)
# Construct: host or cells: IMR-32 human neuroblastoma cells
# Method Notes: IMR-32 FLIPR assay, intracellular Ca2+ changes (side effect liability)
# Type: cell-based
Reported EC50 values follow for various molecules
Record the value in µM, omitting the unit from your answer.

Example entries and their recorded answers appear below.
# Smiles Code, Measured Endpoint, Reading
rows = [
    ("COc1cncc(N2C[C@@H]3CN[C@@H]3C2)c1", "EC50", 3.8),
    ("Cc1cc(N2C[C@@H]3CN[C@@H]3C2)cnc1Cl", "EC50", 3.4),
    ("Clc1cc(N2C[C@@H]3CN[C@@H]3C2)cnc1Br", "EC50", 1.4),
]

Lab note: measured EC50 of Clc1ccc(N2C[C@@H]3CN[C@@H]3C2)cn1 was 1.4

Lab note: measured EC50 of N#Cc1cc(N2C[C@@H]3CN[C@@H]3C2)cnc1Br was 1.2

* * *

# Study System: ganglionic-like nicotinic acetylcholine receptor (nAChR) subtype in IMR-32 human neuroblastoma cells (Homo sapiens, UniProt P30926+P32297)
# Construct: host or cells: IMR-32 human neuroblastoma cells
# Method Notes: IMR-32 FLIPR assay, intracellular Ca2+ changes (side effect liability)
# Format: cell-based
# Recorded Conditions: Table 1; read-out: IMR-32 activitiy EC50
Measured Endpoint: EC50

Example entries and their recorded answers appear below.
# Smiles Code, EC50
data = [
    ("N#Cc1cncc(N2C[C@@H]3CN[C@@H]3C2)c1", "19.9 µM"),
    ("c1cncc(N2C[C@@H]3CN[C@@H]3C2)c1", "23.2 µM"),
]

Lab note: measured EC50 of Clc1cc(N2C[C@H]3CN[C@H]3C2)cnc1Cl was 0.078 µM
